Study Target: T1, IL23R_huFC (human, UniProt Q5VWK5 24-353)
T1 sequence (looked up): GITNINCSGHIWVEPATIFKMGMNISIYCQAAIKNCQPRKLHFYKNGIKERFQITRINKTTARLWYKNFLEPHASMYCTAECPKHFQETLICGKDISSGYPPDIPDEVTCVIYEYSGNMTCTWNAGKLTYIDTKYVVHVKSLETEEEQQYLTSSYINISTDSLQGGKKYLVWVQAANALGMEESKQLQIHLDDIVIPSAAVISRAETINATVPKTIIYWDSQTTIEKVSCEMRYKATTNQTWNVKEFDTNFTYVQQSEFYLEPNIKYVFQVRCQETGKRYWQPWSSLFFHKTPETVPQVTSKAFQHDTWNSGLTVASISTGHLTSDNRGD
Measurement Protocol: IL23-IL23R competitive ELISA
[ ]: non-standard residue; d: D form. NMeK = CN[C@@H](CCCCN)C(=O)O; AEA = NCCOCC(=O)O
// assign satisfied if IC50 falls strictly below 0.9 µM, else not satisfied (ties count as not satisfied)

Previously resolved entries follow.
Binder	Class
Ac-ARTWQ[MeCys]YWRKFG[AEA][dK]-NH2 (not fully specified; printed as Ac-ARTWQ-[MeCys]-YWRKFG-[AEA]-[(D)Lys]-NH2) [Ac-ARTWQ-[MeCys]-YWRKFG-[AEA]-[(D)Lys]-NH2]	not satisfied
Ac-C[NMeK]TWQCYWRVFG[AEA][dK]-NH2 (cysteine pairing not given here) [Ac-C-[N-MeLys]-TWQCYWRVFG-[AEA]-[(D)Lys]-NH2]	satisfied
CADWVCYFXXFGXK (not fully specified; Ac-; [hPhe]; [Orn]; [Dap]; [AEA]; [(D)Lys]; -NH2) [Ac-CADWVCY-[hPhe]-[Orn]-[Dap]-FG-[AEA]-[(D)Lys]-NH2]	not satisfied

Next up:
Query block: IC50 under 0.9 µM? Item: Ac-CKTWQCYWRVFG[AEA][dK]-NH2 (cysteine pairing not given here) [Ac-CKTWQCYWRVFG-[AEA]-[(D)Lys]-NH2]
Result block: satisfied
